# system-tested: Tyrosine-protein kinase HCK (Homo sapiens); further: in the data inactive means no Kd found up to 30 µM
# Sequence (P08631 whole entry): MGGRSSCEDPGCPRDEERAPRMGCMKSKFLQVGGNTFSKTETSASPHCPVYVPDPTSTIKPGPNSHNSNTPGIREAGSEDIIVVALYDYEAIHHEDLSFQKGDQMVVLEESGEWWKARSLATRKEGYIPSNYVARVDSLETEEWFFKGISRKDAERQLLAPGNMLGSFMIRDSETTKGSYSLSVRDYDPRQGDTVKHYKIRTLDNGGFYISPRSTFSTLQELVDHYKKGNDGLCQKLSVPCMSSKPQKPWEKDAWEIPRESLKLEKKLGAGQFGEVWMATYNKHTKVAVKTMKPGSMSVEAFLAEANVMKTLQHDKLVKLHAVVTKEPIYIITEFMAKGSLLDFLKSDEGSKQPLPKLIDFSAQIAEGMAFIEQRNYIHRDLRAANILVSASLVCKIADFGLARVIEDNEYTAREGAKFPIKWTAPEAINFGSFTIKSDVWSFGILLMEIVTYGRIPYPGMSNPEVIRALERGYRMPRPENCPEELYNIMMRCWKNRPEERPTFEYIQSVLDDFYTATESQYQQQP
Calls of active or inactive are those of the source.
Permitted responses: active, inactive

These recorded examples may help you get a feel for the data.
cpd-smiles: Cc1cc(Nc2nc(N[C@@H](C)c3ncc(F)cn3)ncc2Cl)n[nH]1
class-label: inactive
//
cpd-smiles: CC(C)CC(=O)Nc1[nH]nc2c1CN(C(=O)C1CCN(C)CC1)C2(C)C
class-label: inactive
//
cpd-smiles: Cn1c(=O)c(F)c(Nc2ccc(I)cc2F)c2c(=O)n(C[C@@H](O)CO)cnc21
class-label: inactive
//
cpd-smiles: c1cc(OCCN2CCCCC2)cc(-c2n[nH]c3ccc(-c4nc[nH]n4)cc23)c1
class-label: inactive
//
cpd-smiles: CNC(=O)c1cc(COc2nnc(Nc3ccc(Cl)cc3)c3ccoc23)ccn1
class-label: inactive
//
cpd-smiles: O=c1[nH]c([C@@H]2CCCN2)nc2c1oc1ccc(Cl)cc12
class-label: inactive
//
cpd-smiles: COc1cccc2cc(-c3nc([C@H]4CC[C@H](C(=O)O)CC4)n4ncnc(N)c34)[nH]c12
class-label: inactive

Note: attention shifts to another entry.
Query: recorded result category for `CCc1nc(C(N)=O)c(Nc2ccc(N3CCC(N4CCN(C)CC4)CC3)c(OC)c2)nc1NC1CCOCC1` in this test
active

* * *

# system-tested: Pyridoxal kinase (Homo sapiens); further: in the data inactive means no Kd found up to 30 µM
# Sequence (O00764 whole entry): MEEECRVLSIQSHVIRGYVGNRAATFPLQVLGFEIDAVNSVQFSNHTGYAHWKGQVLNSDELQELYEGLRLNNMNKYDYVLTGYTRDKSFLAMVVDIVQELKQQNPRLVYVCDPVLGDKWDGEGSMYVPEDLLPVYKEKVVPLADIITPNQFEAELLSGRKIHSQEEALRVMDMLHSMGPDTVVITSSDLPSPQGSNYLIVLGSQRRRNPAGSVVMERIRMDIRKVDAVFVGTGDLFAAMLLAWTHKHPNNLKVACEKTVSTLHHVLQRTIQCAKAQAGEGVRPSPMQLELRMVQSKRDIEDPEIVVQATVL
The source made the active and inactive calls.
The following compounds are listed with their measured Kd values.

Use the examples below as a reference point.
cpd-smiles: C#Cc1cccc(Nc2ncnc3cc4c(cc23)OCCOCCOCCO4)c1
system-tested: Pyridoxal kinase (Homo sapiens); further: in the data inactive means no Kd found up to 30 µM
Kd: > 30 µM (inactive)
//
cpd-smiles: Cc1cc(Nc2nc(N[C@@H](C)c3ncc(F)cn3)ncc2Cl)n[nH]1
system-tested: Pyridoxal kinase (Homo sapiens); further: in the data inactive means no Kd found up to 30 µM
Kd: > 30 µM (inactive)
//
cpd-smiles: COc1cc2ncnc(Nc3ccc(O)cc3)c2cc1OC
system-tested: Pyridoxal kinase (Homo sapiens); further: in the data inactive means no Kd found up to 30 µM
Kd: > 30 µM (inactive)

Data request, read-out Kd, for `Cn1c(=O)n(-c2ccc(C(C)(C)C#N)cc2)c2c3cc(-c4cnc5ccccc5c4)ccc3ncc21`
> 30 µM (inactive)

Data request, read-out Kd, for `Cc1c(Cn2c(C)nc3c(C(=O)O)cc(N4CCOCC4)cc32)cccc1C(F)(F)F`
> 30 µM (inactive)

Data request, read-out Kd, for `NC(=O)c1ccc(N(C(N)=O)c2c(F)cccc2F)nc1-c1ccc(F)cc1F`
> 30 µM (inactive)

Data request, read-out Kd, for `CCc1cc2c(cc1N1CCC(N3CCOCC3)CC1)C(C)(C)c1[nH]c3cc(C#N)ccc3c1C2=O`
> 30 µM (inactive)

Data request, read-out Kd, for `COc1cc2ncnc3c2cc1OCCCCCN(C)Cc1ccc(Br)cc1N3`
> 30 µM (inactive)

Data request, read-out Kd, for `C=CCn1c(=O)c2cnc(Nc3ccc(N4CCN(C)CC4)cc3)nc2n1-c1cccc(C(C)(C)O)n1`
> 30 µM (inactive)

* * *

# system-tested: AP2-associated protein kinase 1 (Homo sapiens, UniProt Q2M2I8); further: in the data inactive means no Kd found up to 30 µM
# Sequence (Q2M2I8 whole entry): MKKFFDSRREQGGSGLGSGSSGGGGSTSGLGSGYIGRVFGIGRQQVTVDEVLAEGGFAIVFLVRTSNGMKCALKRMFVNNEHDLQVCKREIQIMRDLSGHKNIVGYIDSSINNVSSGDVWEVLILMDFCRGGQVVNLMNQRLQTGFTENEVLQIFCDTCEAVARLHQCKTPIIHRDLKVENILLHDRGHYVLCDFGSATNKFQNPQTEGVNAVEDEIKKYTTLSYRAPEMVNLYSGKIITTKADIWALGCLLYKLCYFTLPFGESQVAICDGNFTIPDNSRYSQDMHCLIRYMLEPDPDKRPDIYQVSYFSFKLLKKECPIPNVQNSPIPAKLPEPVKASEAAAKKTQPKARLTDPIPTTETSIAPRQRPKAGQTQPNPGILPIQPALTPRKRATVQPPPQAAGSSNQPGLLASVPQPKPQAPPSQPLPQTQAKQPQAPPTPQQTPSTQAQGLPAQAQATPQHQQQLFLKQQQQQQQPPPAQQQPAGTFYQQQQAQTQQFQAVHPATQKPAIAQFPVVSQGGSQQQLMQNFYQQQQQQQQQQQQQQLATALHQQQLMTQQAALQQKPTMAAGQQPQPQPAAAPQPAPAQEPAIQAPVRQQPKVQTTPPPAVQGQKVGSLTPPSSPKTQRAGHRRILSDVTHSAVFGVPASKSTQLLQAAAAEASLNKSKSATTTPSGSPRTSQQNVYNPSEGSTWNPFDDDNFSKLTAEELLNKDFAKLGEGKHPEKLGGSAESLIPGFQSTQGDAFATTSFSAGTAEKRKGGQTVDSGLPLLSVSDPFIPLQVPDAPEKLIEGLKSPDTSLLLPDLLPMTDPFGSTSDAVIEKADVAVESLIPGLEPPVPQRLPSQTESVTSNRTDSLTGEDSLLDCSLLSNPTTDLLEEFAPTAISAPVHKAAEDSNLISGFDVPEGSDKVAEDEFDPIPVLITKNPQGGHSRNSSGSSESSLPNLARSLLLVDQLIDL
Active and inactive are the calls of the source.
Permitted responses: active, inactive

These recorded examples may help you get a feel for the data.
cpd-smiles: S=C(NCc1ccc2c(c1)OCO2)N1CCN(c2ncnc3c2oc2ccccc23)CC1
class-label: inactive
//
cpd-smiles: C[C@]1(O)C[C@@H](c2nc(-c3ccc4ccc(-c5ccccc5)nc4c3)c3c(N)nccn32)C1
class-label: inactive

Query: recorded result category for `COc1cc2ncnc3c2cc1OCCCCCN(C)Cc1ccc(Br)cc1N3` in this test
inactive

Query: recorded result category for `COc1cc(Nc2ncc(F)c(Nc3ccc4c(n3)N(COP(=O)(O)O)C(=O)C(C)(C)O4)n2)cc(OC)c1OC` in this test
inactive

Query: recorded result category for `c1cc(OCCN2CCCCC2)cc(-c2n[nH]c3ccc(-c4nc[nH]n4)cc23)c1` in this test
active

Query: recorded result category for `C#Cc1cccc(Nc2ncnc3cc4c(cc23)OCCOCCOCCO4)c1` in this test
inactive

Query: recorded result category for `Cc1c(Cn2c(C)nc3c(C(=O)O)cc(N4CCOCC4)cc32)cccc1C(F)(F)F` in this test
inactive

Query: recorded result category for `O=C(NC[C@H](O)CO)c1ccncc1Nc1ccc(I)cc1F` in this test
inactive

* * *

# system-tested: Mitogen-activated protein kinase kinase kinase kinase 3 (Homo sapiens); further: in the data inactive means no Kd found up to 30 µM
# Sequence (Q8IVH8 whole entry): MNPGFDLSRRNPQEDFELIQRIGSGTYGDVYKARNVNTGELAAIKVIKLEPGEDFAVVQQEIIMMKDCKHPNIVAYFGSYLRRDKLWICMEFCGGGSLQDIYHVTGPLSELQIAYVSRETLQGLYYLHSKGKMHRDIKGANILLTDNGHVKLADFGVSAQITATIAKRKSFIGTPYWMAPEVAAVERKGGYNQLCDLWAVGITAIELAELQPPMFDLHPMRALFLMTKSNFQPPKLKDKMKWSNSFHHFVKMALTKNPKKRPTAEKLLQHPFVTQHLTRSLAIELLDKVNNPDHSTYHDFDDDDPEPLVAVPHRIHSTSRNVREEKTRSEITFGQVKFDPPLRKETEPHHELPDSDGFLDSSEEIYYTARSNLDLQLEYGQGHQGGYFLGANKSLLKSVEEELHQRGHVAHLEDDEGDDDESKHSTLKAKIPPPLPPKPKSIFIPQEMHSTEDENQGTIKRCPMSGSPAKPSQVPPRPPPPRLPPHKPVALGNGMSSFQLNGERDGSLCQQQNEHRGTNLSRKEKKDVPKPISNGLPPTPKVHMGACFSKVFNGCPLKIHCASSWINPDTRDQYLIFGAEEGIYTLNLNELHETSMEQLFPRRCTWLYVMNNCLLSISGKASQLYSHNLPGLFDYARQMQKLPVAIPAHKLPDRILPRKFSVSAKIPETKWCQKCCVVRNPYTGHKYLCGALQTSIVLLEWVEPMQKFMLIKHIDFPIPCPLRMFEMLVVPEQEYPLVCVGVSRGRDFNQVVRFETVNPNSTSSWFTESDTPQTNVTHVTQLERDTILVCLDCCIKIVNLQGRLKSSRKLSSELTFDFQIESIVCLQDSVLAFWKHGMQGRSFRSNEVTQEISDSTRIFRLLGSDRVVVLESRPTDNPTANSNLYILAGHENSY
Activity calls are given as the source filed them.
Permitted responses: active, inactive

compound: C#Cc1cccc(Nc2ncnc3cc4c(cc23)OCCOCCOCCO4)c1
class-label: inactive

Query: recorded result category for `CC(C)(O)CC(=O)NCCn1ccc2ncnc(Nc3ccc(Oc4cccc(C(F)(F)F)c4)c(Cl)c3)c21` in this test
inactive

Query: recorded result category for `CN1CCN(c2nc(C3=C(c4c[nH]c5ccccc45)C(=O)NC3=O)c3ccccc3n2)CC1` in this test
inactive

Query: recorded result category for `Cc1c(Cn2c(C)nc3c(C(=O)O)cc(N4CCOCC4)cc32)cccc1C(F)(F)F` in this test
inactive

Query: recorded result category for `Cc1ccc(C(=O)Nc2ccc(Oc3cc4cnn(C)c4cc3-c3cn[nH]c3)c(F)c2)c(=O)n1-c1ccc(F)cc1` in this test
inactive

Query: recorded result category for `CC(C)CC(=O)Nc1[nH]nc2c1CN(C(=O)C1CCN(C)CC1)C2(C)C` in this test
inactive

Query: recorded result category for `FC(F)(F)c1ccc(CNc2ccc(Cc3c[nH]c4ncc(Cl)cc34)cn2)cn1` in this test
inactive

* * *

# system-tested: Dual specificity tyrosine-phosphorylation-regulated kinase 1B (Homo sapiens, UniProt Q9Y463); further: in the data inactive means no Kd found up to 30 µM
# Sequence (Q9Y463 whole entry): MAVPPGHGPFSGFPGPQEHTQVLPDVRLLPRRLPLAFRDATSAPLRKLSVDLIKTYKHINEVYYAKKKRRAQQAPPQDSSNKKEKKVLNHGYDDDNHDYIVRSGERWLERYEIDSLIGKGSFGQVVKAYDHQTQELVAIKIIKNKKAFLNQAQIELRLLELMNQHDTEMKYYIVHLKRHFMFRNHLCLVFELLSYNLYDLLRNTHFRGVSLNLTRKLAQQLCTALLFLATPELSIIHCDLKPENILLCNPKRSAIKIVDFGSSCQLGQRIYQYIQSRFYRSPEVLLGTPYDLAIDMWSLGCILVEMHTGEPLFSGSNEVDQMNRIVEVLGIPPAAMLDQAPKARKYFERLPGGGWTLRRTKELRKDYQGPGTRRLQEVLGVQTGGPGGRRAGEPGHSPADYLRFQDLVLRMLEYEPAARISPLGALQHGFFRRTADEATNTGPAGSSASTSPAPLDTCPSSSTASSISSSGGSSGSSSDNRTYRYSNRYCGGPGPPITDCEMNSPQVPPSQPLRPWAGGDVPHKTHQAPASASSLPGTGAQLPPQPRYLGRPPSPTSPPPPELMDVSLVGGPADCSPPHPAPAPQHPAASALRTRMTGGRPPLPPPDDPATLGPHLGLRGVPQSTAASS
Active and inactive are the calls of the source.
The following molecules are listed with their measured Kd values.

Use the examples below as a reference point.
molecule: Cc1cc(-c2cc(OC(=O)c3ccccc3)ccc2Cl)cc2nnc(Nc3ccc(OCCN4CCCC4)cc3)nc12
test-value: > 30 µM (inactive)
//
molecule: COCCN1CCN(Cc2ccc(-c3n[nH]c4c3C(=O)c3c(NC(=O)NN5CCOCC5)cccc3-4)cc2)CC1
test-value: > 30 µM (inactive)
//
molecule: CNC(=O)c1ccc(Nc2ncc(C(F)(F)F)c(NCc3nccnc3N(C)S(C)(=O)=O)n2)cc1
test-value: > 30 µM (inactive)
//
molecule: CNC(=O)c1cccc(-c2ccc3c(N4CCOC[C@@H]4C)nc(N4CCOC[C@@H]4C)nc3n2)c1
test-value: > 30 µM (inactive)
//
molecule: COc1ccc2c(OCc3nnc4ccc(-c5ccccc5)nn34)ccnc2c1
test-value: > 30 µM (inactive)
//
molecule: O[C@H]1CC[C@H](Nc2ncc3nc(Nc4c(F)cc(F)cc4F)n([C@H]4CCOC4)c3n2)CC1
test-value: > 30 µM (inactive)
//
molecule: CCc1cc2c(cc1N1CCC(N3CCOCC3)CC1)C(C)(C)c1[nH]c3cc(C#N)ccc3c1C2=O
test-value: > 30 µM (inactive)
//
molecule: C#Cc1cccc(Nc2ncnc3cc4c(cc23)OCCOCCOCCO4)c1
test-value: > 30 µM (inactive)
//
molecule: COc1cc(Nc2ncc(F)c(Nc3ccc4c(n3)N(COP(=O)(O)O)C(=O)C(C)(C)O4)n2)cc(OC)c1OC
test-value: > 30 µM (inactive)

Data request, read-out Kd, for COc1cc2nccc(Oc3ccc(NC(=O)C4(C(=O)Nc5ccc(F)cc5)CC4)cc3)c2cc1OC [CABOZANTINIB]
> 30 µM (inactive)

* * *

# system-tested: Proto-oncogene tyrosine-protein kinase receptor Ret (Homo sapiens); further: in the data inactive means no Kd found up to 30 µM
# Sequence (P07949 whole entry): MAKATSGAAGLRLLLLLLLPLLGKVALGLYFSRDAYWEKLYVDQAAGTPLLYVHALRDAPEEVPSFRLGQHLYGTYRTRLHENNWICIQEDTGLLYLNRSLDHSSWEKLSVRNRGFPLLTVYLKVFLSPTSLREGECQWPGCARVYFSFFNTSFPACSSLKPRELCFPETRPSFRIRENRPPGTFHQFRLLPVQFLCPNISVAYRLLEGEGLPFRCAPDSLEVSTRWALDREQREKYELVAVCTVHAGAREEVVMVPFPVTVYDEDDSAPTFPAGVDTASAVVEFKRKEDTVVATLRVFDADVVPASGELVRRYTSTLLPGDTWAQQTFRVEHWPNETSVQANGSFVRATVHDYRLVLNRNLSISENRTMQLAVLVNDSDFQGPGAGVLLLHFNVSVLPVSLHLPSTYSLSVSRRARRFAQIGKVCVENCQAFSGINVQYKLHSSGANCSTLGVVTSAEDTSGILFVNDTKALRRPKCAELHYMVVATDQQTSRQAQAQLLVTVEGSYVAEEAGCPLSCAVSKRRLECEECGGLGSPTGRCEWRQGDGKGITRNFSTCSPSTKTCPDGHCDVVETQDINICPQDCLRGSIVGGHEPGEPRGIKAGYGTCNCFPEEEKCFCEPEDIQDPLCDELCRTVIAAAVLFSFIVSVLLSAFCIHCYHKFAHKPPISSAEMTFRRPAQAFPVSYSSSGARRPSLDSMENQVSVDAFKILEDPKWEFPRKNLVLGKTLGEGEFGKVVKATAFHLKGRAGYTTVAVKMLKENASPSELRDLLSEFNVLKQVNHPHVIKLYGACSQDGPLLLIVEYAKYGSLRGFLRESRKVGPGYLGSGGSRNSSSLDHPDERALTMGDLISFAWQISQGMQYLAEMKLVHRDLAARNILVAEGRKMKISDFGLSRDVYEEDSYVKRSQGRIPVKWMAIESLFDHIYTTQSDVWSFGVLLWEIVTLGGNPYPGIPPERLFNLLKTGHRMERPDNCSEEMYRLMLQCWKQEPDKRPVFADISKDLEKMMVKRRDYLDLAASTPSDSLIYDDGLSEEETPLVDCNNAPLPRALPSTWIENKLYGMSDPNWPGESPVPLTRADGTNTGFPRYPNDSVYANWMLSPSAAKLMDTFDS
Active and inactive are the calls of the source.
Permitted responses: active, inactive

These recorded examples may help you get a feel for the data.
compound: CC[C@@](C)(Nc1ccnc(-c2c[nH]c3ncccc23)n1)C(=O)NCC(F)(F)F [DECERNOTINIB]
class-label: inactive

compound: O=S(=O)(c1cccc2c(O)nccc12)N1CCCNCC1 [HYDROXYFASUDIL]
class-label: inactive

compound: Cn1c(=O)c(F)c(Nc2ccc(I)cc2F)c2c(=O)n(C[C@@H](O)CO)cnc21 [TAK-733]
class-label: inactive

Query: recorded result category for Cc1cc(Nc2nc(N[C@@H](C)c3ncc(F)cn3)ncc2Cl)n[nH]1 [AZD-1480] in this test
active

Query: recorded result category for COc1ccc2c(OCc3nnc4ccc(-c5ccccc5)nn34)ccnc2c1 [AMG-208] in this test
inactive

Query: recorded result category for COc1cccc(Nc2ncnn3ccc(CN4CC[C@@H](N)[C@H](O)C4)c23)c1 [BMS-690514] in this test
active

Query: recorded result category for C=CC(=O)Nc1cccc(Nc2nc(Nc3ccc(N4CCN(C(C)=O)CC4)cc3OC)ncc2C(F)(F)F)c1 [ROCILETINIB] in this test
inactive

Query: recorded result category for COc1cc(Nc2ncc(F)c(Nc3ccc4c(n3)N(COP(=O)(O)O)C(=O)C(C)(C)O4)n2)cc(OC)c1OC [FOSTAMATINIB] in this test
active

Origin of measurements: ChEMBL document CHEMBL3991601
